assay: amyloid nucleation score (Sup35N fusion, yeast selection) (log enrichment); library NNK3; higher = more nucleation; inactive = no reads after selection;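 further: zero at mode of non-aggregating sequences after 7 days selection at 30°C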
Test readout: amyloid nucleation score

{"Seq": "PFPGRTLKWNLYTSQFFMAG", "Meas value": "inactive"}
{"Seq": "ATNLSYLNSAQVWLLT", "Meas value": "inactive"}
{"Seq": "LVWSSRPTSW", "Meas value": "inactive"}

====

assay: amyloid nucleation score (Sup35N fusion, yeast selection) (log enrichment); library NNK1; higher = more nucleation; inactive = no reads after selection

{"Substance": "SQYQTLDVHIKGNVCSNLDM", "amyloid nucleation score": 0.012}
{"Substance": "SPQQVSLVGWSRWTEPRTS", "amyloid nucleation score": -0.211}
{"Substance": "TGAYSECFALLIMG", "amyloid nucleation score": -1.09}
{"Substance": "DTYITGSHCHFYMNCWKA", "amyloid nucleation score": 8.52}
{"Substance": "MGHAGTLCFANNCLNM", "amyloid nucleation score": 7.48}
{"Substance": "LDTVYNVSMKKIKVTSIGQC", "amyloid nucleation score": -0.537}
{"Substance": "YLEVPMKFFEFFGFRPVAFV", "amyloid nucleation score": -0.121}
{"Substance": "EINESRLYYNSLQAFAFMWA", "amyloid nucleation score": -0.823}
{"Substance": "DILVYRTLSPCVLSCSYFSG", "amyloid nucleation score": -1.25}
{"Substance": "RCINRGNLAHGGGWCKCKAR", "amyloid nucleation score": 0.743}
{"Substance": "IHKMCRAD", "amyloid nucleation score": 0.12}
{"Substance": "LATGHVFYGFG", "amyloid nucleation score": -0.116}
{"Substance": "TDDATNVRKGAHS", "amyloid nucleation score": 0.602}
{"Substance": "VWGINILMSFPIV", "amyloid nucleation score": 5.67}
{"Substance": "HVLMIRWLWWGISRACKNSR", "amyloid nucleation score": -0.193}
{"Substance": "FAEENTSKFFSRKGEVCYMF", "amyloid nucleation score": -0.113}
{"Substance": "CKSESRFLFAYNSLCLKSMG", "amyloid nucleation score": -0.043}
{"Substance": "HSWGRKVF", "amyloid nucleation score": -1.1}
{"Substance": "LGKQAMC", "amyloid nucleation score": -1.34}
{"Substance": "FIASIG", "amyloid nucleation score": 0.274}
{"Substance": "LRRPVRSTLNGMRMSQHTRR", "amyloid nucleation score": -0.164}
{"Substance": "LVPSTFHTF", "amyloid nucleation score": 0.149}
{"Substance": "FCNLYVEWFLGDNVKVTRYR", "amyloid nucleation score": 3.58}
{"Substance": "GFLIGRSD", "amyloid nucleation score": 0.022}
{"Substance": "GSTENTVYRRGEFGELVWKC", "amyloid nucleation score": -0.311}
{"Substance": "FNDRPVWVFCLRWWDSSVNS", "amyloid nucleation score": -0.857}
{"Substance": "IKIRAICVCMFDSQEGLGET", "amyloid nucleation score": 0.601}
{"Substance": "CLIRIVKF", "amyloid nucleation score": 1.08}
{"Substance": "YGLEYVYVVV", "amyloid nucleation score": 0.277}
{"Substance": "NNHFFMILYINKMVYMILKV", "amyloid nucleation score": 0.38}
{"Substance": "DLIAARLAALF", "amyloid nucleation score": -0.964}
{"Substance": "GRMTFFLVWNCVSFFVTQLL", "amyloid nucleation score": -0.611}
{"Substance": "FNSARGSLVPRFPRGEQR", "amyloid nucleation score": -0.787}
{"Substance": "FGHKPCLATQLTGPTKRCAA", "amyloid nucleation score": 0.959}
{"Substance": "GNCWYV", "amyloid nucleation score": -0.16}
{"Substance": "KLDVSLKKYLD", "amyloid nucleation score": 0.368}
{"Substance": "CFSMILVYYVLFARFVSWSM", "amyloid nucleation score": 0.15}
{"Substance": "VADCPCLGLVNTLAETMNVC", "amyloid nucleation score": 0.243}
{"Substance": "VRLIRTPSDIGTYIIGCREG", "amyloid nucleation score": -0.065}
{"Substance": "AKIWVWSWWY", "amyloid nucleation score": 0.039}
{"Substance": "VASTTSGRHWSLRGHKRFGR", "amyloid nucleation score": 1.28}
{"Substance": "ANLVWDYFQVSTSPMCPLVQ", "amyloid nucleation score": -2.07}
{"Substance": "SGVWNEFEGCWMVDDVIDPL", "amyloid nucleation score": 0.268}
{"Substance": "GGKRVGNIVVRRAQIIIGRR", "amyloid nucleation score": 1.07}
{"Substance": "NTSELRGNMSRHCKNSGGVI", "amyloid nucleation score": -0.058}
{"Substance": "CWVHQNNCADVGATGEQSHR", "amyloid nucleation score": -0.029}

====

test: amyloid nucleation score (Sup35N fusion, yeast selection) (log enrichment); library NNK3; higher = more nucleation; inactive = no reads after selection
Test readout: amyloid nucleation score

{"Substance": "LAFFTHNIYF", "Test readout": "amyloid nucleation score", "Meas value": 1.97}
{"Substance": "QPAFPWTYVFLLYHGW", "Test readout": "amyloid nucleation score", "Meas value": "inactive"}
{"Substance": "ACVRKIIKVGYFYERISIRV", "Test readout": "amyloid nucleation score", "Meas value": "inactive"}
{"Substance": "TDDAGMYDNRFQSMSDENTF", "Test readout": "amyloid nucleation score", "Meas value": "inactive"}
{"Substance": "AGAVYVTAPLIAREDVVACY", "Test readout": "amyloid nucleation score", "Meas value": "inactive"}
{"Substance": "NYLLEEEYMISCIEAITLQP", "Test readout": "amyloid nucleation score", "Meas value": -0.345}
{"Substance": "FQCRYLKHDDKDNYFKGNGK", "Test readout": "amyloid nucleation score", "Meas value": "inactive"}
{"Substance": "RVGTAF", "Test readout": "amyloid nucleation score", "Meas value": -0.517}
{"Substance": "MSGLLCAEIWSRCPASFIGD", "Test readout": "amyloid nucleation score", "Meas value": "inactive"}
{"Substance": "CFVGVTFDLSSDLCLFCNKV", "Test readout": "amyloid nucleation score", "Meas value": "inactive"}
{"Substance": "KQVKMGVA", "Test readout": "amyloid nucleation score", "Meas value": "inactive"}
{"Substance": "ATGDNNLGIMAMALYT", "Test readout": "amyloid nucleation score", "Meas value": "inactive"}
{"Substance": "NRTFNYNIQNVGSSWEL", "Test readout": "amyloid nucleation score", "Meas value": 0.233}
{"Substance": "AHLTSVYVKTPSFEINISNK", "Test readout": "amyloid nucleation score", "Meas value": "inactive"}
{"Substance": "GKGPNCMGASFLNGAHWSGI", "Test readout": "amyloid nucleation score", "Meas value": "inactive"}
{"Substance": "ICPTWELNIRP", "Test readout": "amyloid nucleation score", "Meas value": "inactive"}
{"Substance": "FSGCWRWNNQ", "Test readout": "amyloid nucleation score", "Meas value": "inactive"}
{"Substance": "TGRLVIFTEWRLSAESSRSH", "Test readout": "amyloid nucleation score", "Meas value": "inactive"}
{"Substance": "GEVNTAFYSWPAMPVLADYG", "Test readout": "amyloid nucleation score", "Meas value": "inactive"}
{"Substance": "IFSNRGFQLCWFSYMLSVHT", "Test readout": "amyloid nucleation score", "Meas value": "inactive"}
{"Substance": "FGYYTWTAYER", "Test readout": "amyloid nucleation score", "Meas value": "inactive"}
{"Substance": "FVSVDGWSESMWLASVVLSE", "Test readout": "amyloid nucleation score", "Meas value": "inactive"}
{"Substance": "DFDLLSFIRSDVIPCVCSKG", "Test readout": "amyloid nucleation score", "Meas value": "inactive"}
{"Substance": "LNTGLLLLCG", "Test readout": "amyloid nucleation score", "Meas value": "inactive"}
{"Substance": "TITKVNFWEQVRRLLQSGTQ", "Test readout": "amyloid nucleation score", "Meas value": "inactive"}
{"Substance": "INRVHLYRLLKW", "Test readout": "amyloid nucleation score", "Meas value": "inactive"}
{"Substance": "VYASCTFNIEKVLSVVQTTF", "Test readout": "amyloid nucleation score", "Meas value": 1.52}
{"Substance": "LFCSYNRRGAHLAGCAR", "Test readout": "amyloid nucleation score", "Meas value": "inactive"}
{"Substance": "HNCASCSVRVHDSQSEKIAT", "Test readout": "amyloid nucleation score", "Meas value": "inactive"}

====

// amyloid nucleation score lookup, one value per entry
experiment: amyloid nucleation score (Sup35N fusion, yeast selection) (log enrichment); library NNK1; higher = more nucleation; inactive = no reads after selection

{"Substance": "FDSGLETTNIKMRYMVVYLR", "amyloid nucleation score": -0.608}
{"Substance": "CIWQWVKDNDDNKVAS", "amyloid nucleation score": -1.04}
{"Substance": "MMLCSYKWVF", "amyloid nucleation score": 0.1}
{"Substance": "VSNSWAWPFRRNCGSECWFT", "amyloid nucleation score": 0.228}
{"Substance": "AWILRWKEIPMEYSLSS", "amyloid nucleation score": 0.202}
{"Substance": "RCMMQYKFTWGIVTYRKDLG", "amyloid nucleation score": 0.658}
{"Substance": "CVYGIGVYR", "amyloid nucleation score": -0.84}
{"Substance": "SFLLKKKVPWPFFCTCMLVG", "amyloid nucleation score": -0.575}
{"Substance": "RLCQVDEAASTESRKAKWGR", "amyloid nucleation score": 0.075}
{"Substance": "KYFGFSVHSLLCYNRSLFLS", "amyloid nucleation score": -0.055}
{"Substance": "YTYVSMPGR", "amyloid nucleation score": -0.358}
{"Substance": "SAELKDLRGKQLLAGGP", "amyloid nucleation score": 0.53}
{"Substance": "GSKKYQIMSVSELKVQCCGS", "amyloid nucleation score": 0.445}
{"Substance": "SPHAIGRYLSFCRFCGTAAR", "amyloid nucleation score": -0.026}
{"Substance": "TGCRHFLQVCSVHRRRGSVC", "amyloid nucleation score": 0.022}
{"Substance": "TWSLLNIVYMSN", "amyloid nucleation score": 0.867}
{"Substance": "SWCRGLEVQWLRCIFRM", "amyloid nucleation score": 0.274}
{"Substance": "LVTRLALSFAVNFLLGDSCV", "amyloid nucleation score": 0.595}
{"Substance": "NKSNSLYGSLKWGDRAYSSY", "amyloid nucleation score": -1.31}
{"Substance": "HNYSDFFNESWHNGLIYSY", "amyloid nucleation score": -0.571}
{"Substance": "SRYELSIVDCLRHTTSFFVR", "amyloid nucleation score": 0.034}
{"Substance": "EVIRLDSIFLETGVRSCFQY", "amyloid nucleation score": 0.041}
{"Substance": "ITVRPLPYRPIDVHRYFAQH", "amyloid nucleation score": 0.77}
{"Substance": "FVTIWWLYRTCIFLSTVRTT", "amyloid nucleation score": 1.5}
{"Substance": "CTMLCFQALRLLGRRILFQA", "amyloid nucleation score": -0.361}
{"Substance": "PLVSTHALSAGILYCFKFYR", "amyloid nucleation score": 5.57}
{"Substance": "FVSTVYLY", "amyloid nucleation score": 5.35}
{"Substance": "SYPCTVHTKGWLVFTCGVCI", "amyloid nucleation score": 0.32}
{"Substance": "FNYYYLVEWGDGASIRIASI", "amyloid nucleation score": -0.473}
{"Substance": "SSLNLMPQVGEGRHTGV", "amyloid nucleation score": -0.648}
{"Substance": "LGVVFGRRVHCRLASSVMNM", "amyloid nucleation score": -0.723}
{"Substance": "YTVVLEKTKVMYTVAPPRSL", "amyloid nucleation score": -1.04}
{"Substance": "MGVDYARSVW", "amyloid nucleation score": -0.202}
{"Substance": "FNVGLPLAGIISTKTD", "amyloid nucleation score": -1.83}
{"Substance": "ERENAYPSIMLVCV", "amyloid nucleation score": -0.092}
{"Substance": "LSTLQQLGKLLNTVWDDLAQ", "amyloid nucleation score": 0.048}
{"Substance": "RLFCGSWDNFREGE", "amyloid nucleation score": -0.063}
{"Substance": "CVFVRMMCTRFAAHHCVLSG", "amyloid nucleation score": -0.143}
{"Substance": "ISYSLRGSVRR", "amyloid nucleation score": -0.032}
{"Substance": "FVCWVGTGLMIRVAIDQCWR", "amyloid nucleation score": -0.202}
{"Substance": "TESVRKWFKLRLWESWYNSN", "amyloid nucleation score": 0.145}
{"Substance": "SVNFRYPWCFTVGGMTVLLQ", "amyloid nucleation score": 0.007}
{"Substance": "VAYSVI", "amyloid nucleation score": 1.02}
{"Substance": "LMVNLYPY", "amyloid nucleation score": 0.16}
{"Substance": "AKGCNMWI", "amyloid nucleation score": 2.3}
{"Substance": "LYTITLLIALALTTEQAPPR", "amyloid nucleation score": 1.67}
{"Substance": "ERFVYALIEFCIETERLHTE", "amyloid nucleation score": -0.459}
{"Substance": "FLNGKSGHAVVKLEGLMTNW", "amyloid nucleation score": 0.447}
{"Substance": "EMCFGLFGKLVWCETWLVKA", "amyloid nucleation score": 0.344}
{"Substance": "LNIEVFNFICNRRAIWMRFA", "amyloid nucleation score": 0.684}
{"Substance": "LLNGEQLQSSDNIRLWIAFR", "amyloid nucleation score": 0.151}
